Answer each item with its documented solubility.
experimental.protocol: Aqueous solubility of compound at pH 2 by LC-MS/MS analysis
Format: physicochemical
condition.details: buffer
Response body: numeric value in µM, unit text excluded.

For the compound O=C1O[C@@H](CO)CN1c1ccc(-c2ccc(/C=N/N3CCS(=O)(=O)CC3)nc2)c(F)c1 , what solubility is on record?
72.2

For the compound CC(=O)NC[C@H]1CN(c2ccc(-c3ccc(/C=N/N4CCS(=O)(=O)CC4)nc3)c(F)c2)C(=O)O1 , what solubility is on record?
70.4

For the compound O=C1O[C@@H](CO)CN1c1ccc(-c2ccc(/C=N/N3CCCCC3)nc2)c(F)c1 , what solubility is on record?
58.4

For the compound CC(C)N/N=C/c1ccc(-c2ccc(N3C[C@H](CO)OC3=O)cc2F)cn1 , what solubility is on record?
56.4

For the compound O=C1O[C@@H](CO)CN1c1ccc(-c2ccc(/C=N/N3CCOCC3)nc2)c(F)c1 , what solubility is on record?
52.6
